Assay: Karl-Fisher (coulometric) water content of salts
Type: physicochemical
Where a name gives a salt, the structure may show the parent alone.
Reported K. F. (Karl-Fisher water) values are given for each entry in this list.
Only the number, expressed in %, is required.

Ask: Given the entry CN(C)C[C@@H]1CCn2cc(c3ccccc32)C2=C(C(=O)NC2=O)c2cn(c3ccccc23)CCO1 [Phosphate] , report its measured K. F. (Karl-Fisher water).
Result: 4.6

Ask: Please report the recorded K. F. (Karl-Fisher water) for CN(C)C[C@@H]1CCn2cc(c3ccccc32)C2=C(C(=O)NC2=O)c2cn(c3ccccc23)CCO1 [HCl] .
Result: 1.3

Ask: If you can, please state the reported K. F. (Karl-Fisher water) value of CN(C)C[C@@H]1CCn2cc(c3ccccc32)C2=C(C(=O)NC2=O)c2cn(c3ccccc23)CCO1 [Sulfate] .
Result: 4.9

Ask: Record request: K. F. (Karl-Fisher water) value, item CN(C)C[C@@H]1CCn2cc(c3ccccc32)C2=C(C(=O)NC2=O)c2cn(c3ccccc23)CCO1 [Mesylate]
Result: 3.6

Ask: Which K. F. (Karl-Fisher water) is reported for this compound? CN(C)C[C@@H]1CCn2cc(c3ccccc32)C2=C(C(=O)NC2=O)c2cn(c3ccccc23)CCO1 [Tartrate]
Result: 5.1

Ask: Data request, read-out K. F. (Karl-Fisher water), for CN(C)C[C@@H]1CCn2cc(c3ccccc32)C2=C(C(=O)NC2=O)c2cn(c3ccccc23)CCO1 [Succinate]
Result: 0.2

Ask: # lookup: K. F. (Karl-Fisher water) of CN(C)C[C@@H]1CCn2cc(c3ccccc32)C2=C(C(=O)NC2=O)c2cn(c3ccccc23)CCO1 [Acetate]
Result: 0.3

* * *

Assay: Hygroscopicity of salts at relative humidities
Assay type: physicochemical
Conditions: vacuum
Where a name gives a salt, the structure may show the parent alone.
// reported Hygroscopicity, Vacuum for each item listed
Write it as a number; the unit wt % initial goes unstated.

# count of solved cases: 4
INSERT INTO assay_data (compound, observation_type, unit_tag, assay_result) VALUES
  ('CN(C)C[C@@H]1CCn2cc(c3ccccc32)C2=C(C(=O)NC2=O)c2cn(c3ccccc23)CCO1 [Mesylate]', 'Hygroscopicity, Vacuum', 'wt % initial', 99.0),
  ('CN(C)C[C@@H]1CCn2cc(c3ccccc32)C2=C(C(=O)NC2=O)c2cn(c3ccccc23)CCO1 [Succinate]', 'Hygroscopicity, Vacuum', 'wt % initial', 99.3),
  ('CN(C)C[C@@H]1CCn2cc(c3ccccc32)C2=C(C(=O)NC2=O)c2cn(c3ccccc23)CCO1 [Sulfate]', 'Hygroscopicity, Vacuum', 'wt % initial', 98.9),
  ('CN(C)C[C@@H]1CCn2cc(c3ccccc32)C2=C(C(=O)NC2=O)c2cn(c3ccccc23)CCO1 [Tartrate]', 'Hygroscopicity, Vacuum', 'wt % initial', 97.9);

Ask: So what does the record say about Hygroscopicity, Vacuum for CN(C)C[C@@H]1CCn2cc(c3ccccc32)C2=C(C(=O)NC2=O)c2cn(c3ccccc23)CCO1 [Phosphate] ?
Result: 98.2

Ask: Param item = CN(C)C[C@@H]1CCn2cc(c3ccccc32)C2=C(C(=O)NC2=O)c2cn(c3ccccc23)CCO1 [Acetate] ; retrieve measured Hygroscopicity, Vacuum.
Result: 99.4

Ask: Hygroscopicity, Vacuum lookup needed for CN(C)C[C@@H]1CCn2cc(c3ccccc32)C2=C(C(=O)NC2=O)c2cn(c3ccccc23)CCO1 [HCl] , thanks.
Result: 98.7

* * *

Overview of reported Hygroscopicity, RH 65% across a group of compounds:
Test: Hygroscopicity of salts at relative humidities
Type: physicochemical
Settings: 65% RH
Structures can show the parent of a compound that is named as a salt.
I only need the number, in wt % initial, no unit after it.

# count of solved cases: 5
INSERT INTO results (compound, assay_result) VALUES
  ('CN(C)C[C@@H]1CCn2cc(c3ccccc32)C2=C(C(=O)NC2=O)c2cn(c3ccccc23)CCO1 [Mesylate]', 100.7),
  ('CN(C)C[C@@H]1CCn2cc(c3ccccc32)C2=C(C(=O)NC2=O)c2cn(c3ccccc23)CCO1 [Sulfate]', 100.9),
  ('CN(C)C[C@@H]1CCn2cc(c3ccccc32)C2=C(C(=O)NC2=O)c2cn(c3ccccc23)CCO1 [Phosphate]', 105.5),
  ('CN(C)C[C@@H]1CCn2cc(c3ccccc32)C2=C(C(=O)NC2=O)c2cn(c3ccccc23)CCO1 [Tartrate]', 103.8),
  ('CN(C)C[C@@H]1CCn2cc(c3ccccc32)C2=C(C(=O)NC2=O)c2cn(c3ccccc23)CCO1 [Acetate]', 100.2);

Ask: Quick one: Hygroscopicity, RH 65% for CN(C)C[C@@H]1CCn2cc(c3ccccc32)C2=C(C(=O)NC2=O)c2cn(c3ccccc23)CCO1 [Succinate] ?
Result: 100.0

Ask: Quick check: Hygroscopicity, RH 65% of CN(C)C[C@@H]1CCn2cc(c3ccccc32)C2=C(C(=O)NC2=O)c2cn(c3ccccc23)CCO1 [HCl] ?
Result: 100.4

* * *

Measured Aqueous solubility (base), listed per entry for reference.
Assay: physchem
Format: physicochemical
Settings: water
Include the unit after the number when you answer.

Example entries and their recorded answers appear below.
INSERT INTO assay_data (compound, assay_result) VALUES
  ('CN(C)C[C@@H]1CCn2cc(c3ccccc32)C2=C(C(=O)NC2=O)c2cn(c3ccccc23)CCO1 [Mesylate]', '1460 μg base/mL H2 O'),
  ('CN(C)C[C@@H]1CCn2cc(c3ccccc32)C2=C(C(=O)NC2=O)c2cn(c3ccccc23)CCO1 [Sulfate]', '12 μg base/mL H2 O');

Ask: Quick one: Aqueous solubility (base) of CN(C)C[C@@H]1CCn2cc(c3ccccc32)C2=C(C(=O)NC2=O)c2cn(c3ccccc23)CCO1 [Acetate] ?
Result: 0.9 μg base/mL H2 O

* * *

Test: Hygroscopicity of salts at relative humidities
Format: physicochemical
Settings: 80% RH
Description: The salts were examined for hygroscopicity at relative humidities (RH) of 27%, 35%, 65% and 80% and are depicted in Table IV. The samples were subjected to vacuum initially to establish a reference point for the RH data. The amount of water contained in each salt was also determined by Karl-Fisher (coulometric).
Where a name gives a salt, the structure may show the parent alone.
OBSERVATION TYPE: Hygroscopicity, RH 80% (wt % initial)
Your answer is read as wt % initial, so omit the unit and give the number.

Use these answered entries as a reference point.
INSERT INTO measurements (molecule, unit_tag, assay_result) VALUES
  ('CN(C)C[C@@H]1CCn2cc(c3ccccc32)C2=C(C(=O)NC2=O)c2cn(c3ccccc23)CCO1 [Tartrate]', 'wt % initial', 105.4),
  ('CN(C)C[C@@H]1CCn2cc(c3ccccc32)C2=C(C(=O)NC2=O)c2cn(c3ccccc23)CCO1 [HCl]', 'wt % initial', 100.6),
  ('CN(C)C[C@@H]1CCn2cc(c3ccccc32)C2=C(C(=O)NC2=O)c2cn(c3ccccc23)CCO1 [Succinate]', 'wt % initial', 100.5),
  ('CN(C)C[C@@H]1CCn2cc(c3ccccc32)C2=C(C(=O)NC2=O)c2cn(c3ccccc23)CCO1 [Acetate]', 'wt % initial', 100.6);

Then there is this molecule:
Ask: Given the entry CN(C)C[C@@H]1CCn2cc(c3ccccc32)C2=C(C(=O)NC2=O)c2cn(c3ccccc23)CCO1 [Sulfate] , report its measured Hygroscopicity, RH 80%.
Result: 101.9
